Assayed system: trkA (NIH3T3 cells transfected with trkA) (Homo sapiens)
Construct: expressed in transfected cells; host or cells: NIH3T3
Experimental protocol: Inhibition of NGF-stimulated trk phosphorylation in a whole cell preparation
Assay type: cell-based
Run parameters: 1 uM compound, NGF 10 ng/ml
Kindly state Cell Score @ 1 uM (percent decrease in trk protein band) for each of the entries shown.

In the examples that follow, each entry is paired with its recorded Cell Score @ 1 uM (percent decrease in trk protein band).
- Molecule: "O=C1NCc2c1c1c(c3[nH]c4ccccc4c23)C(C2CCC(O)O2)c2ccccc2-1 (racemic) [II-23]"
  Result: "4 (4=76-100%)"
- Molecule: "CC1(C2c3ccccc3-c3c4c(c5c([nH]c6ccccc65)c32)CNC4=O)CCCO1 (racemic)"
  Result: "2 (2=26-49%)"
- Molecule: "CC1(C2c3ccccc3-c3c4c(c5c([nH]c6ccccc65)c32)CNC4=O)CC(O)(CO)CO1 (stereo not shown)"
  Result: "4 (4=76-100%)"

Now let's try a different one.
Exam item: Give the reported Cell Score @ 1 uM (percent decrease in trk protein band) for this molecule. O=C1NCc2c1c1c(c3[nH]c4ccccc4c23)C(C2CCC(O)O2)c2ccccc2-1 (single isomer, unassigned) [II-38]
Marked response: 2 (2=26-49%)

---

Assayed system: trkA (NIH3T3 cells transfected with trkA) (Homo sapiens, UniProt P04629)
Construct: expressed in transfected cells; host or cells: NIH3T3
Sequence (P04629 33-796, species assumed): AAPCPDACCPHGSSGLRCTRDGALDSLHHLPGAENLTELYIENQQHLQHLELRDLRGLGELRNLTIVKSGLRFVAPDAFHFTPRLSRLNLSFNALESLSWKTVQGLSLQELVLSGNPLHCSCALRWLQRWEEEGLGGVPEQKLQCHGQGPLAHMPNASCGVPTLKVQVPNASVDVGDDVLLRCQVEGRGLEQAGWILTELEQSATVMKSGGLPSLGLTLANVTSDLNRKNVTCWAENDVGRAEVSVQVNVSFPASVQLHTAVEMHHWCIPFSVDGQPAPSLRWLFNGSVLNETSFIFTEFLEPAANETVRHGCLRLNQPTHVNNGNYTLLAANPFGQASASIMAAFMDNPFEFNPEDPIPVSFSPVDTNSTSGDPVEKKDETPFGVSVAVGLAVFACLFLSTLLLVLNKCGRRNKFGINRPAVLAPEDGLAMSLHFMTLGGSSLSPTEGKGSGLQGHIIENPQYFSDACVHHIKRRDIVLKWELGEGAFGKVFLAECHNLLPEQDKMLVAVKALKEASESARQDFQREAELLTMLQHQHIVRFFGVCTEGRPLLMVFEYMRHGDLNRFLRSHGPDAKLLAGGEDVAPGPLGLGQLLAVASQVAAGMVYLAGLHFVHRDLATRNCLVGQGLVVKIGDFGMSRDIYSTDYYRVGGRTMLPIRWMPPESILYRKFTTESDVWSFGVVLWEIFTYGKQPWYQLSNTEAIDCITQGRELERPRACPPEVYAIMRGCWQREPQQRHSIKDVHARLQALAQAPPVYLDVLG
Experimental protocol: Inhibition of NGF-stimulated trk phosphorylation in a whole cell preparation
Format: cell-based
Run parameters: 100 nM compound, NGF 10 ng/ml
Value kind: Cell Score @ 100 nM (percent decrease in trk protein band)

In the examples that follow, each entry is paired with its recorded Cell Score @ 100 nM (percent decrease in trk protein band).
- Compound: "O=C1CCC(C2c3ccccc3-c3c4c(c5c([nH]c6ccccc65)c32)CNC4=O)O1 (centres unmarked)"
  Result: "1 (1=1-25%)"
- Compound: "CC1(C)COC(=O)C1(O)C1c2ccccc2-c2c3c(c4c([nH]c5ccccc54)c21)CNC3=O (centres unmarked)"
  Result: "1 (1=1-25%)"
- Compound: "COc1ccc2c(c1)C(C1(CO)CCCO1)c1c-2c2c(c3c1[nH]c1ccccc13)CNC2=O (centres unmarked)"
  Result: "4 (4=76-100%)"
- Compound: "O=C1NCc2c1c1c(c3[nH]c4ccccc4c23)C(C2CCCO2)c2ccccc2-1 (centres unmarked)"
  Result: "1 (1=1-25%)"
- Compound: "O=C1NCc2c1c1c(c3[nH]c4ccccc4c23)C(C2(CO)CCCO2)c2ccccc2-1 (single isomer, unassigned) [II-35]"
  Result: 0
- Compound: "O=C1NCc2c1c1c(c3[nH]c4ccccc4c23)C(C2CCC(O)O2)c2ccccc2-1 (racemic) [II-23]"
  Result: "2 (2=26-49%)"
- Compound: "COCCOC(=O)c1ccc2[nH]c3c4c(c5c(c3c2c1)CNC5=O)-c1ccccc1C4C1CCC(OCCOC)O1 (centres unmarked)"
  Result: "2 (2=26-49%)"
- Compound: "CC1(C2c3ccccc3-c3c4c(c5c([nH]c6ccccc65)c32)CNC4=O)CC(O)(CO)CO1 (centres unmarked)"
  Result: "2 (2=26-49%)"
- Compound: "O=C1NCc2c1c1c(c3[nH]c4ccccc4c23)C(C2CCC(O)O2)c2ccccc2-1 (single isomer, unassigned) [II-38]"
  Result: "2 (2=26-49%)"
- Compound: "CC1(C2c3ccccc3-c3c4c(c5c([nH]c6ccccc65)c32)CNC4=O)CCCO1 (racemic)"
  Result: "1 (1=1-25%)"

# return Cell Score @ 100 nM (percent decrease in trk protein band) for each item in the list
1. O=C1NCc2c1c1c(c3[nH]c4ccccc4c23)C(C2(C(O)CO)CCCO2)c2ccccc2-1 (centres unmarked)
2. O=C1NCc2c1c1c(c3[nH]c4ccccc4c23)C(C2(CO)CCCO2)c2ccccc2-1 (centres unmarked) [II-21]

Marked response:
0
2 (2=26-49%)

# return Cell Score @ 100 nM (percent decrease in trk protein band) for each item in the list
1. O=C1NCc2c1c1c(c3[nH]c4ccccc4c23)C(C2(CO)CCCO2)c2ccccc2-1 (single isomer, unassigned) [II-36]
2. CCOC1CCC(CO)(C2c3cc(OC)ccc3-c3c4c(c5c([nH]c6ccccc65)c32)CNC4=O)O1 (single isomer, unassigned)

Marked response:
["1 (1=1-25%)", "2 (2=26-49%)"]
